target: human Cot catalytic domain (30-397 amino acids) (Homo sapiens); construct: Purified recombinant human Cot catalytic domain (30-397 amino acids) was purchased from Cama Biosciences; purchased Cama Biosciences (so in the source); assay: High Throughput Cot Biochemical Assay (KinEASE TR-FRET); conditions: Cot KinEASE TR-FRET, 400 μM ATP; read-out: IC50 HTRF
Sequence (P41279 30-397): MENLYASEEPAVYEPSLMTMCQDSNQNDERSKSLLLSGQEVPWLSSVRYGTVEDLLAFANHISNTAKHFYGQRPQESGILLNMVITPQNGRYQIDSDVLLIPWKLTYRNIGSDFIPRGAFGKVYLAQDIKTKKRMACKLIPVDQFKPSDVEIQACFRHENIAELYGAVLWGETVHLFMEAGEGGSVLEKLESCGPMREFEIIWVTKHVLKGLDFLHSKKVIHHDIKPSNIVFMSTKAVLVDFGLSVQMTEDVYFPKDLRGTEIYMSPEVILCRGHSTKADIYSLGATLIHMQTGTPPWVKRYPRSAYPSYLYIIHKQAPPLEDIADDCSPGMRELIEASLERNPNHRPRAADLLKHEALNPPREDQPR
Mark T only for IC50 values smaller than 10 nM; exact matches and larger values are F.

Some solved entries appear below for comparison.
| compound | category-label |
| --- | --- |
| Cc1c(C#N)cccc1[C@H](Nc1cc(C#N)c2ncc(C#N)c(NCC(C)(C)C)c2c1)c1cn(C(CF)CF)nn1 | T |
| CC(C)(C)CNc1c(C#N)cnc2c(Cl)cc(N[C@@H](c3ccc(F)cc3)c3cn(CC(F)F)nn3)cc12 | F |
| CNC(=O)c1cccc([C@H](Nc2cc(Cl)c3ncc(C#N)c(NCC(C)(C)C)c3c2)c2cn(C3(C(F)(F)F)CC3)nn2)c1F | T |
| CCN1CC[C@H](n2cc(C(Nc3cc(Cl)c4ncc(C#N)c(Nc5ccc(F)c(Cl)c5)c4c3)c3ccc(Cl)cc3)nn2)C1 (stereo partly drawn) | F |
| Cc1c(C#N)cccc1[C@H](Nc1cc(C#N)c2ncc(C#N)c(NCC(C)(C)C(F)(F)F)c2c1)c1cn(C2(C)CC2)nn1 | T |

Next compound, please.
Task item: Item N#Cc1cnc2c(Cl)cc(N[C@@H](c3ccc(F)cc3)c3cn(C4COC4)nn3)cc2c1Nc1ccc(F)c(Cl)c1 : IC50 beneath 10 nM, strictly?
Reply: F
